// data source = patent US20260265410A1

assay.system: T1, human PTPRG on the cell surface (U937 cells, HEL cells) (human, UniProt P23470 20-1445)
T1 construct: Endogenous PTPRG of human AML cell lines
T1 sequence (P23470 20-1445): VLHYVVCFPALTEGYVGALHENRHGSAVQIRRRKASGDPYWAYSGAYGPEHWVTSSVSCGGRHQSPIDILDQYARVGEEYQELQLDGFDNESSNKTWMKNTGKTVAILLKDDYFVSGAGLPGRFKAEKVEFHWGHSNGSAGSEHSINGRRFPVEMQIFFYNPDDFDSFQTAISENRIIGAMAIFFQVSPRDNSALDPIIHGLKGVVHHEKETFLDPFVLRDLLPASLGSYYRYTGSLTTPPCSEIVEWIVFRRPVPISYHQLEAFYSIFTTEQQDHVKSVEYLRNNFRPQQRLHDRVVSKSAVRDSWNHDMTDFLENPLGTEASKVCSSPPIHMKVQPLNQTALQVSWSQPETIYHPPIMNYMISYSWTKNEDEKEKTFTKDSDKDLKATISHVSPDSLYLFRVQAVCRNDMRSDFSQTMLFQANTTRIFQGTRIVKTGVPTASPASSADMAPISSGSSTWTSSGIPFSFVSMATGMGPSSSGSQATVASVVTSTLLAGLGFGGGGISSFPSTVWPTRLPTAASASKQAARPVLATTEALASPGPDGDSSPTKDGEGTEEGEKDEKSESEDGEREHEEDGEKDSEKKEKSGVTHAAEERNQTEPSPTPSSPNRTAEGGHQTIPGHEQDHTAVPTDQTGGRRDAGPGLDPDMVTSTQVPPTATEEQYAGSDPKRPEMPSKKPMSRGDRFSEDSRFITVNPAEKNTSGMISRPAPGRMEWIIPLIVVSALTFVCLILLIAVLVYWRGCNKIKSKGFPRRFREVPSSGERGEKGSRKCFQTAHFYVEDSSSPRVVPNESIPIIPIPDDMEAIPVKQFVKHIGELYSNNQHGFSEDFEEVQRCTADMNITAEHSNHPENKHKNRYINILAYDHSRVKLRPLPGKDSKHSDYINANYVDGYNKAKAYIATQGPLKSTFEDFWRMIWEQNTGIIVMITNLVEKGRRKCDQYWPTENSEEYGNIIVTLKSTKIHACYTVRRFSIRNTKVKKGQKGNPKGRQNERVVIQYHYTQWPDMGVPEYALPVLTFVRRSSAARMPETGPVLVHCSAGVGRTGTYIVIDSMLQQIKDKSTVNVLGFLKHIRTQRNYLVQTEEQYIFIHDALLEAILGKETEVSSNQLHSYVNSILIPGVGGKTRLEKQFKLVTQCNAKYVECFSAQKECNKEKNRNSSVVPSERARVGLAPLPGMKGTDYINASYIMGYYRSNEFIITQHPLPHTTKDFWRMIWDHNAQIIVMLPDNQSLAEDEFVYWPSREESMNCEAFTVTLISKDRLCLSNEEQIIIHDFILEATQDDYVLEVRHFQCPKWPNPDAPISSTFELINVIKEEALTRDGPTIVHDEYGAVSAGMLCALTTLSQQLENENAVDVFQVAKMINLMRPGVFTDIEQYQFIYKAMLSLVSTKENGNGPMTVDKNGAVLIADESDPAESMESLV
protocol.summary: flow cytometry on whole HEL cells, screen of the 28 clones (Ctrl row = 0); PTPRG is named as the antigen on HEL cells only in the later examples
measurement.type: flow cytometry binding value (the table prints no name or unit)
Simply state the number, no unit and no words.

A selection of reference data follows.
binder: Fab_2653 (Fab, V domains shown, Chimeric rabbit/human Fab; also called P2653; clone 2653) VH: QEQLEESGGRLVTPGTPLTLTCTASGFSLSTYAMTWVRQAPGKGLEWIGIIDRYGYTYYANWARGRFTISKTSTTVDLKITSPTTEDTATYFCARDLPGYNVGTYFNMWGPGTLVTISS VL: SFVLTQPASVQVNLGQTVSLTCTADTLSRRYASWYQQKPGQAPVLFIYRDTSRPSGVPDRFSGSSSGSTATLTISGAQAGDEADYYCATSDGSGSSYQFVFGGGTQLTVTG
numeric.readout: 13.6

binder: Fab_1707 (Fab, V domains shown, Chimeric rabbit/human Fab; also called P1707) VH: AQSLEEFGGGLIKPGGTLTLTCTASGFTISSYDMSWVRQAPGSGLEWIGTMAYGGDTYHASWAKSRSTITRDTNLNTVTLKMTSLTVADTATYFCARDVGSGHYYDDMYLWGPGTLVTVSS VL: SFVLTQPASVQVNFGQTVSLTCTADTLSRRYASWYQQKPGQAPVLLIYRDTSRPSGVPDRFSGSSSGNTATLTISGAQAGDEADYYCATGDGSGSSYNYVFGGGTQLTVTG
numeric.readout: 16.9

Now take the following binder into account.
Look up and report measured flow cytometry binding value (the table prints no name or unit) for this entry: Fab_1187 (Fab, V domains shown, Chimeric rabbit/human Fab; also called P1187; mAb_1187) VH: AQSVEESGGRLVTPGTPLTLTCTVSGIDLSSYAMSWVRQAPGKGLEWIGVIDGSGSTWYANWVKGRFTISKTTTVDLKITSPTTEDTATYFCAREDYGSETIDFNIWGPGTLVTVSS VL: SFVLTQPASVQVNLGQTVSLTCTADTLSRRYASWYQQKPGQAPVLLIYRDTRRPSGVPDRFSGSSSGNTATLTISGAQAGDEADYYCATSDGSGSSYQYVFGGGTQLTVTG 10.7
